Several publications report pIC50 on Tyrosine-protein kinase JAK3 (Homo sapiens, UniProt P52333); those values are gathered here.
pIC50: −log10 of the molar value.
property measured: pIC50

compound: COCCOc1ccc(Nc2ncc(F)c(Nc3cccc(NS(=O)(=O)c4c(F)c(F)c(F)c(F)c4C(F)(F)F)c3)n2)cc1
reported measurement: > 6.00

compound: CC(C)(C)NS(=O)(=O)c1ccc(NC(=O)CN2CCN(c3ncnc4[nH]ccc34)CC2)cc1
reported measurement: < 6.00

compound: C=CC(=O)N1C[C@H](Nc2ncnc3[nH]cc([C@H]4[C@@H](C)C4(F)F)c23)CC[C@@H]1C (single isomer, unassigned)
reported measurement: ≥ 8.00

compound: C=CC(=O)N1CCC(Nc2cnc3[nH]cc(C(=O)C4CC4)c3c2)CC1
reported measurement: 7.00 to 8.00

compound: C=CC(=O)N1CCC[C@@H](Nc2ncnc3[nH]cc(C4CCCC4)c23)C1
reported measurement: ≥ 8.00

compound: CCCNS(=O)(=O)c1ccc(NC(=O)CN2CCN(c3ncnc4[nH]ccc34)CC2)cc1
reported measurement: 6.00 to 6.30

compound: CCCCNS(=O)(=O)c1ccc(NC(=O)CN2CCN(c3ncnc4[nH]ccc34)CC2)cc1
reported measurement: 6.00 to 6.30

compound: C=CC(=O)N1CC(Nc2ncnc3[nH]cc(CC4CC4)c23)CCC1C(C)C (stereo not shown)
reported measurement: 7.00 to 8.00

compound: CC(C)NS(=O)(=O)c1ccc(NC(=O)[C@H](C)N2CCN(c3ncnc4[nH]ccc34)CC2)cc1
reported measurement: < 6.00

compound: C=CC(=O)N1CCC[C@@H](Nc2ncnc3[nH]cc(C(=O)OCC)c23)C1
reported measurement: ≥ 8.00

compound: CC(C)NS(=O)(=O)c1ccc(NC(=O)[C@@H](C)N2CCN(c3ncnc4[nH]ccc34)CC2)cc1
reported measurement: 6.00 to 6.30

compound: C=CC(=O)N1CCC[C@@H](Nc2ncnc3[nH]cc(C4CC4(F)F)c23)C1 (stereo partly shown)
reported measurement: ≥ 8.00

compound: C=CC(=O)N1C[C@H](Nc2ccnc3[nH]cc(CC4CC4)c23)CC[C@@H]1C
reported measurement: ≥ 8.00

compound: C=CC(=O)N1C[C@@H](Nc2ncnc3[nH]cc(CC4CC4)c23)CC[C@H]1CC (single isomer, unassigned)
reported measurement: ≥ 8.00

compound: O=C(Nc1cn2c(-c3ccc(CN4CCC(F)(F)CC4)cc3)cccc2n1)C1CC1
reported measurement: 7.02

compound: C=CC(=O)N1CCC[C@@H](Nc2ccnc3[nH]cc(C(=O)C4(C)CC4)c23)C1
reported measurement: ≥ 8.00

###

Field: IC50. System: Tyrosine-protein kinase JAK3 (Homo sapiens, UniProt P52333). Provenance: assorted publications.
property measured: IC50

compound: O=C(/C=C/C(=O)N1CCNCC1)Nc1cc2cc(c1)Nc1nccc(n1)-c1cccc(c1)COC/C=C/COC2
property measured: IC50
reported measurement: 151 nM
--
compound: CC(C)CS(=O)(=O)C1CCN(Cc2ccc(-c3cccc4nc(NC(=O)C5CC5)cn34)cc2)CC1
property measured: IC50
reported measurement: 8280 nM
--
compound: O=C(Nc1cn2c(-c3ccc(CN4CCS(=O)(=O)CC4)cc3F)cccc2n1)C1CC1F (stereo not drawn)
property measured: IC50
reported measurement: 6110 nM
--
compound: C=CC(=O)N1C[C@H](Nc2ncnc3[nH]cc(C4(C)CC4(F)F)c23)CC[C@@H]1C (stereo partly drawn)
property measured: IC50
reported measurement: ≤ 10 nM
--
compound: COCCN(C)S(=O)(=O)c1ccc(NC(=O)CN2CCN(c3ncnc4[nH]ccc34)CC2)cc1
property measured: IC50
reported measurement: > 1000 nM
--
compound: C=CC(=O)N1CCC[C@@H](Nc2ncnc3[nH]cc(C(=O)[C@@H]4CCOC4)c23)C1 (single isomer, unassigned)
property measured: IC50
reported measurement: 10 to 100 nM
--
compound: CCNS(=O)(=O)c1ccc(NC(=O)CN2CCN(c3ncnc4[nH]ccc34)CC2)cc1
property measured: IC50
reported measurement: > 1000 nM
--
compound: C=CC(=O)N1C[C@H](Nc2ncnc3[nH]cc(C(=O)OCCC)c23)CC[C@@H]1C
property measured: IC50
reported measurement: ≤ 10 nM
--
compound: C[C@H]1CC[C@@H](Nc2ncnc3[nH]cc(CC4CC4)c23)CN1C(=O)/C=C/CN(C)C
property measured: IC50
reported measurement: 10 to 100 nM
--
compound: C=CC(=O)N1C[C@H](Nc2ccnc3[nH]cc([C@H]4CC4(F)F)c23)CC[C@@H]1C (single isomer, unassigned)
property measured: IC50
reported measurement: ≤ 10 nM
--
compound: C=CC(=O)N1CCC[C@@H](Nc2ccnc3[nH]cc(CC4CC4)c23)C1
property measured: IC50
reported measurement: ≤ 10 nM
--
compound: C=CC(=O)N1CCC[C@@H](Nc2ncnc3[nH]cc([C@@]45CCC[C@@H]4C5(F)F)c23)C1 (single isomer, unassigned)
property measured: IC50
reported measurement: ≤ 10 nM
--
compound: C=CC(=O)N1CCC[C@@H](Nc2ncnc3[nH]cc(CC4CC4)c23)C1
property measured: IC50
reported measurement: ≤ 10 nM
--
compound: C=CC(=O)N1CCC[C@@H](Nc2ccnc3[nH]cc(C(=O)CCOC)c23)C1
property measured: IC50
reported measurement: 10 to 100 nM
--
compound: CN(C)S(=O)(=O)c1ccc(NC(=O)CN2CCN(c3ncnc4[nH]ccc34)CC2)cc1F
property measured: IC50
reported measurement: > 1000 nM
